The measured values listed here are drawn from the RNAGym collection of RNA variant scans (doi:10.1021/acssynbio.7b00057).

# maps each entry to its aptazyme ON/OFF ratio
B1: Pistol ribozyme (parent)
chain: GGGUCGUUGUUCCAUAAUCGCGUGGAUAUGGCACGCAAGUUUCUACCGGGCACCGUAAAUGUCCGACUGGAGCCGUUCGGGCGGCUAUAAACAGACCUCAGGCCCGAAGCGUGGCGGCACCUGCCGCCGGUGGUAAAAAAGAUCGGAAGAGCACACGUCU

Variants of: B1
assay_protocol: aptazyme ON/OFF ratio, guanine; higher = stronger switching; co-transcriptional cleavage with and without guanine
Could you keep your reply to the number by itself?

Example entries and their recorded answers appear below.
- variant_spec: "U7C U8G G9A U10C U11G C12G C13G"
  measurement: 1.27
- variant_spec: "G9C U11A C12U C13G"
  measurement: 1.17
- variant_spec: "U8A G9U U11A C12A C13G"
  measurement: 1.18
- variant_spec: "U8A G9U C12G"
  measurement: 1.18
- variant_spec: "U7C U11A"
  measurement: 1.38
- variant_spec: "U8G G9A U11A C12G C13U"
  measurement: 1.26

stdin: May I ask what aptazyme ON/OFF ratio has been recorded for U7G U8G U10A C13U ?
stdout: 1.36

stdin: Report aptazyme ON/OFF ratio for U7A U8A G9U C12A C13A please.
stdout: 1.25

stdin: Value lookup for aptazyme ON/OFF ratio; key = U8C G9U U10A
stdout: 1.42

stdin: GET /values?readout=aptazyme ON/OFF ratio&item= U7C U8C G9A U10G U11A C12U
stdout: 1.11

stdin: Quick check: aptazyme ON/OFF ratio of U7G U8C U10A C12A ?
stdout: 1.21

stdin: Please give the measured aptazyme ON/OFF ratio for this variant: U7G U10C C12U C13U
stdout: 1.07

stdin: Could you tell me which aptazyme ON/OFF ratio is on file for U7C U8C G9C C12G C13G ?
stdout: 1.07
